Exercise: for every item that follows, state its recorded max response.
- Test system: CRL-7250
- Protocol Text: Cytotoxic Profiling of Annotated Libraries Using Quantitative High-Throughput Screening (AID 1296008); also: % is scaled to controls: 0 for no effect and ±100 for the full control effect; nearly all actives have a fitted effect of over 60% in size
- Test Context: Five cell lines viability, CellTiter-Glo ATP luminescence, 48-72 h; stronger effect = lower value
Records with an inconclusive call do not appear.
A number alone suffices; assume %.

Reading of max response for CC(C)CCCC(C)NCCC(C)C (configuration not stated) with CRL-7250: -5.37

The recorded max response with CRL-7250 for CCCCCC1Nc2cc(C(F)(F)F)c(S(N)(=O)=O)cc2S(=O)(=O)N1 (configuration not stated) was -8.64

The recorded max response with CRL-7250 for Cn1c(=O)c2c(ncn2CC(=O)O)n(C)c1=O was -0.788

Reported CRL-7250 max response for item CN1Cc2cc(C(=O)N3CCC(C4CCNCC4)CC3)ccc2NC(CC(=O)O)C1=O (configuration not stated) was 0.285

Item O=[N+]([O-])c1nccn1CO[C@@H](CO)[C@H](O)CO ; assay system CRL-7250; max response reported as -17.9

Test item CNC(=O)c1c(I)c(NC(C)=O)c(I)c(C(=O)O)c1I ; CRL-7250; reported max response was -1.99

# CCCCCOc1ccccc1/C(=C\SC)n1ccnc1 with CRL-7250: max response is -4.59

Observed max response on CRL-7250, entry CC(=O)OC[C@H]1O[C@@H](OC(C)=O)[C@H](OC(C)=O)[C@@H]1OC(C)=O , equals -4.36

CRL-7250 max response of Cc1cccc(C)c1NC(=O)c1ccc(N)cc1 is -0.144

Record Oc1ccccc1 / CRL-7250, max response recorded as -1.94

I looked up O=C(O)c1[nH]n(-c2ccc(S(=O)(=O)O)cc2)c(=O)c1N=Nc1ccc(S(=O)(=O)O)cc1 and its max response for CRL-7250 was 0.833

Log: CRL-7250, compound CC1c2ccccc2CN1NC(=O)c1ccc(Cl)c(S(N)(=O)=O)c1 (configuration not stated) , max response = -8.72

Kindly note: CRL-7250, CCCc1ncc(C(=O)O)s1 , max response value reported: -9.12

Summary line: CN1C(=O)c2ccccc2C1=O , CRL-7250, reported max response = 3.83

Item: c1ccc2occc2c1 | System: CRL-7250 | max response: -10.5

Short answer on CRL-7250 for COC(=O)c1cc(S(N)(=O)=O)ccc1OC , max response: -27.4

Per the reported CRL-7250 data, CCOC(=O)NNc1ccc(N(CC)CC(C)O)nn1 (configuration not stated) has max response of 2.28

---

- Protocol Text: qHTS of pediatric cancer cell lines to identify multiple opportunities for drug repurposing: Primary screen for MG 63 (6-TG R) cells (AID 1347105); also: % is scaled to controls: 0 for no effect and ±100 for the full control effect; nearly all actives have a fitted effect of over 50% in size
- Test Context: MG 63 (6-TG R) viability, CellTiter-Glo, 48 h; series mostly up to 46 µM
Records with an inconclusive call do not appear. The source made the active and inactive calls. The call rests on the fitted dose curve; in most records, active means well fitted cell-killing curve with a large enough effect; inconclusive means small, poorly fitted or top-dose-only effect; inactive means no such curve, though single readings can be large or run the other way.
Measured Quantity: outcome

Compound	outcome
Cc1ccccc1C(=O)N1CC/C(=N\OS(=O)(=O)O)c2ccc(Cl)cc21	inactive
C/C(=N\O)[C@@H](C)NCC(C)(C)CN[C@H](C)/C(C)=N/O	inactive
CCC1(c2cnc[nH]2)Cc2ccccc2C1	inactive
Cc1nc([N+](=O)[O-])cn1-c1ccc([N+](=O)[O-])cc1	inactive
CC(C)C(=O)Nc1cccc(C(F)(F)F)c1	inactive

Record C[C@H]1C[C@H](O)c2ccsc2S1(=O)=O . Reported outcome: inactive

Per the records, this compound ( C1=CC2C3C=CC(C3)C2C1 (stereo not given) ) has outcome equal to inactive

In plain terms, CCCC(CCC)(C(=O)OCC)C(=O)OCC has a documented outcome of inactive

# compound CO/N=C(/C(=O)N[C@@H]1C(=O)N2C(C(=O)OCOC(=O)C(C)(C)C)=C(C)CS[C@H]12)c1csc(N)n1 ; its outcome = inactive

// outcome lookup, compound = CC1(C)O[C@@H]2C[C@H]3[C@@H]4C[C@H](F)C5=CC(=O)C=C[C@]5(C)[C@@]4(F)[C@@H](O)C[C@]3(C)[C@]2(C(=O)CO)O1 , result: inactive

---

- Protocol Text: qHTS of pediatric cancer cell lines to identify multiple opportunities for drug repurposing: Confirmatory screen for Rh41 cells (AID 1347123);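 also: 48 h compound exposure; nearly all actives have a fitted effect of over 60% in size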
- Test Context: Rh41 rhabdomyosarcoma cells, viability/cytotoxicity qHTS; series mostly up to 45.9 µM
Results filed as inconclusive are left out. The source made the active and inactive calls. Calls follow the shape of the dose curve; as a rule, active = well fitted cell-killing curve with a large enough effect; inconclusive = small, poorly fitted or top-dose-only effect; inactive = no such curve, though single readings can be large or run the other way.
A correct response names exactly one class from active, inactive

*Q* Tell me the assay call for CO[C@@H]1[C@@H](OC)[C@H](C)[C@@](O)(CC(=O)O)O[C@H]1[C@H](C)[C@H]1O[C@@]2(CC[C@@](C)([C@H]3CC[C@@](C)([C@@H]4O[C@@H]([C@H]5O[C@](C)(O)[C@H](C)C[C@@H]5C)C[C@@H]4OC4C[C@H](OC)[C@@H](OC)[C@H](C)O4)O3)O2)C[C@H](O)[C@H]1C (some centres not stated) please.
*A* active

*Q* Entry CCCCC(CC)CNC(=O)CC(C)OC(=O)CCC(=O)O (configuration not stated) : call = ?
*A* inactive

*Q* What call does the record list for CCOC(=O)O[C@]1(C(=O)OCCl)CC[C@H]2[C@@H]3CCC4=CC(=O)C=C[C@]4(C)[C@H]3[C@@H](O)C[C@@]21C ?
*A* inactive

*Q* Outcome? Nc1c2ccccc2nc2ccccc12
*A* active

*Q* Assay outcome for N=C(N)c1ccc(OCCCOc2ccc(C(=N)N)cc2)cc1 : what was it?
*A* inactive

*Q* Please indicate how the test categorized C[C@]12CCC(=O)C=C1CC[C@@H]1[C@@H]2[C@@H](O)C[C@@]2(C)[C@H]1CC[C@]2(O)C(=O)COC(=O)CCC(=O)O .
*A* inactive

*Q* Status in this test for CN(C)CCN(Cc1ccsc1)c1ccccn1 ?
*A* inactive

*Q* Test call, this compound: CC(=O)OCC(=O)[C@@]1(O)CCC2C3CCC4=CC(=O)CC[C@]4(C)C3[C@@H](O)C[C@@]21C (some centres not stated)
*A* active

*Q* Recorded call for COc1c(C)c2c(c(O)c1C/C=C(\C)CCC(=O)OCCN1CCOCC1)C(=O)OC2 ?
*A* active

*Q* Record request — test call for O=c1[nH]sc2cc(Cl)ccc12
*A* active

*Q* Could you check what this test reported for CC[C@@]1(O)C(=O)OCc2c1cc1n(c2=O)Cc2c-1nc1ccccc1c2/C=N/OC(C)(C)C ?
*A* active

*Q* Test call, this compound: CC(=O)OCC(=O)[C@@]1(O)[C@H](OC(C)=O)C[C@H]2[C@@H]3CCC4=CC(=O)C=C[C@]4(C)[C@@]3(F)[C@@H](O)C[C@@]21C
*A* inactive

---

Kindly supply the reported max response values for the records listed here.
- Protocol Text: qHTS assay for small molecule antagonists of peroxisome proliferator-activated receptor delta signaling (AID 588535);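 also: cells co-treated with a PPAR-delta agonist as stimulator during compound exposure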
- Test Context: HEK293T PPARd-UAS-bla, beta-lactamase FRET ratio, 18 h; 460 nm channel
Records with an inconclusive call do not appear.
Numeric answer only, unit % assumed.

The recorded max response for COC(=O)c1c(Cl)c(Cl)c(C(=O)OC)c(Cl)c1Cl is -8.5

The compound Cc1cc(C(C)(C)C)c(O)c(C(C)(C)C)c1 showed max response equal to 13.8

For this compound ( CC(=O)OC/C=C(C)/C=C/C=C(C)/C=C/C1=C(C)CCCC1(C)C ), measured max response is 34.7

Input CCCCCCCCCCCCCCCC[n+]1ccccc1 . Output max response: 21.5

---

- Tested on: WaGa
- Protocol Text: qHTS assay to identify novel small-molecules to repurpose for Merkel cell carcinoma treatment (AID 1296009); also: nearly all actives have a fitted effect of over 60% in size
- Test Context: MCC and control cell lines, CellTiter-Glo viability, 72 h; series mostly up to 46 µM
- Excerpt: MCC is a rare and aggressive neuroendocrine skin cancer with limited treatment options. Approximately 80% of MCCs have the Merkel cell polyomavirus (MCPyV) DNA integrated into the host genome (virus-positive: VP-MCC) and viral oncogenes drive oncogenesis. The remaining MCCs are virus-negative (VN-MCC) and are caused by UV mutagenesis. […] Using cell viability as a readout (CellTiter-Glo assay) we found both overlapping and distinct drugs that can be repurposed for the treatment of VP-MCC and VN-MCC. […]
Inconclusive results are not listed. Activity calls are given as the source filed them. Calls come from the whole dose curve; as a rule, active = well fitted inhibition curve with a large enough effect; inconclusive = small, poorly fitted or top-dose-only effect; inactive = flat fitted curve, though single readings scatter. Where a SMILES comes first, the peptide text is derived from it. [ ]: non-standard residue; d: D form. pGlu = O=C1CC[C@@H](C(=O)O)N1
Assign a class; possible classes are active, inactive

*Q* Please indicate how the test categorized CCCC(=O)O[C@]1(C(=O)COC(=O)CC)CC[C@H]2[C@@H]3CCC4=CC(=O)CC[C@]4(C)[C@H]3[C@@H](O)C[C@@]21C .
*A* inactive

*Q* What is the recorded call for this molecule in the test? Cc1cccc(C)c1NC(=O)c1ccc(N)cc1
*A* inactive

*Q* # fetch the recorded call for COc1ccccc1OCC1CNC(=O)O1 (centres undefined) here
*A* inactive

*Q* How was O=C(O)C(=O)Nc1cccc(-c2nn[nH]n2)c1 classified in this test?
*A* inactive

*Q* Fill in: this test's call for CCOC(=O)OCC/C(SC(=O)OCC)=C(\C)N(C=O)Cc1cnc(C)nc1N is ___
*A* inactive

*Q* What classification did O=C(O)C1CCC1 end up with in this test?
*A* inactive

*Q* Check the results log: what was the call for O=C(O)Cc1ccccc1Oc1ccc(Cl)cc1Cl ?
*A* inactive

*Q* Dear colleague, could you share the recorded outcome for CCOC(=O)CN1CCCC1=O when you have a moment?
*A* inactive

*Q* Check the results log: what was the call for Cc1ncc([N+](=O)[O-])n1C ?
*A* inactive

*Q* What classification did COC(=O)/C=C\C(=O)OC end up with in this test?
*A* inactive

*Q* For CC(C)(C)c1ccc(O)c(O)c1 , which call appears in the assay record?
*A* active

*Q* GET /call?item= CCC(C(=O)OCCN1CCOC(c2ccccc2)C1C)c1ccccc1 (centres undefined) returns the recorded outcome of this test.
*A* inactive

*Q* Answer briefly: the call reported for CCOc1ccccc1OCC1CNCCO1 (centres undefined) in this assay.
*A* inactive

*Q* # lookup: test call for CCNC(=O)[C@@H]1CCCN1C(=O)[C@H](CCCN=C(N)N)NC(=O)[C@H](CC(C)C)NC(=O)CNC(=O)[C@H](Cc1ccc(O)cc1)NC(=O)[C@H](CO)NC(=O)[C@H](Cc1c[nH]c2ccccc12)NC(=O)[C@H](Cc1cnc[nH]1)NC(=O)[C@@H]1CCC(=O)N1 ([pGlu]HWSYGLRP-NHEt)
*A* inactive

*Q* Recorded test outcome, item Nc1ccc(C(=O)N2CC3CC(CN(Cc4ccccc4)C3)C2)cc1
*A* inactive

*Q* # lookup: test call for CC(C)NC(=O)c1ccc(C=O)cc1
*A* inactive

*Q* How did this test come out for O=C(CCCl)NCCc1ccccc1 ?
*A* inactive

*Q* Call for entry C#CC(C)(CC)OC(=O)c1ccccc1C(=O)O (centres undefined) :
*A* inactive

*Q* So what was the verdict on Cc1nc(C2CCCCC2)c(-c2ccc(S(N)(=O)=O)c(F)c2)o1 in this test?
*A* inactive
